Where do these numbers come from? They come from the RNAGym collection of RNA variant scans (doi:10.7554/elife.90254).

B1: LINE1-mini (parent)
chain: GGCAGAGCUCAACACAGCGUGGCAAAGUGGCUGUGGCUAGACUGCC

- Variants of: B1
- test: self-cleavage, relative activity (ratio to wild type); higher = more cleavage; in vitro, sequencing; the parent is a self-cleaving ribozyme
Task for the reader: assign each of the following variants its reported self-cleavage.
Keep the answer to the number alone.

Noted for C10G G30A : its self-cleavage reads 0.21

Noted for G22A C31U : its self-cleavage reads 0.49

Noted for C10A G19C : its self-cleavage reads 0.05

Noted for G21U A25U : its self-cleavage reads 1.88

Noted for C10G A41U : its self-cleavage reads 0.05

Noted for C15U A16U : its self-cleavage reads 0.1

Noted for C10G G44A : its self-cleavage reads 0.05

Noted for A6G G7A : its self-cleavage reads 0.11

Noted for U9A G29C : its self-cleavage reads 0.05

Noted for C23A U32C : its self-cleavage reads 0.47

Noted for G2A U38A : its self-cleavage reads 0.71

Noted for G5C G17A : its self-cleavage reads 0.04

Noted for C3G C45G : its self-cleavage reads 1.97

Noted for G30A G40C : its self-cleavage reads 0.16

Noted for G1U A24C : its self-cleavage reads 0.36

Noted for G29C : its self-cleavage reads 0.49

Noted for A11G U28A : its self-cleavage reads 0.03

Noted for C23U G44A : its self-cleavage reads 0.64

Noted for A11C A41G : its self-cleavage reads 0.03

Noted for C15G C23G : its self-cleavage reads 0.12

Noted for A6G G22C : its self-cleavage reads 0.07

Noted for C23U C45G : its self-cleavage reads 0.51

Noted for C8U C37G : its self-cleavage reads 0.07

Noted for A4C A26C : its self-cleavage reads 0.1

Noted for A16G A41U : its self-cleavage reads 0.16

Noted for C18A G30C : its self-cleavage reads 1.99

Noted for U34A G44A : its self-cleavage reads 0.06

Noted for G5U G17A : its self-cleavage reads 0.1

Noted for G7C A24C : its self-cleavage reads 0.09

Noted for G5U U34G : its self-cleavage reads 0.04

Noted for G7A C18G : its self-cleavage reads 0.19

Noted for G19A C31A : its self-cleavage reads 0.46

Noted for U9A : its self-cleavage reads 0.17

Noted for G36A A39C : its self-cleavage reads 0.27

Noted for G29U C31A : its self-cleavage reads 0.15

Noted for G21U U38A : its self-cleavage reads 0.42

Noted for G22U C45A : its self-cleavage reads 0.88

Noted for C8U G29U : its self-cleavage reads 0.46

Noted for U9A A41G : its self-cleavage reads 0.05

Noted for C10A G33C : its self-cleavage reads 0.03

Noted for A16C C42U : its self-cleavage reads 0.06

Noted for G7C U9A : its self-cleavage reads 0.09

Noted for A12G G29A : its self-cleavage reads 0.03

Noted for A11U U34C : its self-cleavage reads 0.05

Noted for G2U U28C : its self-cleavage reads 0.06

Noted for C10A C18G : its self-cleavage reads 0.04
